system: rabbits; experiment: Serum antibody titre by ELISA after immunisation of rabbits with the KHL-conjugated synthetic peptide; assay type: in vivo, rabbit; details: rabbit R1, after the 10 week immunisation protocol; ELISA against corresponding synthetic peptide antigen
Entries and their measured Titre: (Serum Dilution) Post Immunization R1 follow.
ASSAY_METRIC: Titre: (Serum Dilution) Post Immunization R1

SUBSTANCE	VALUE_OBSERVED
ESYVPLFP [Peptide 5]	25600
PLPPTVMFPPQ [Peptide 8]	25600
PKLKVEVPEP [Peptide 4]	25600
PVVVPPFLQ [Peptide 9]	25600
FLPVVN [Peptide 2]	12800
LPLPLVRS [Peptide 10]	25600
PVLPVEPFPF [Peptide 3]	12800
QPKVLPVPQ [Peptide 7]	25600
LLYQEPV [Peptide 6]	25600
QPLLQVMMEPQ [Peptide 1]	12800

Origin of values: patent US20040171553A1
